Values from patent US11135234B2

Please go through the items and note down their minimal inhibitory concentration (MIC).
Test system: S. marcescens GN6944
Experiment: MIC, agar plate dilution method, S. marcescens GN6944
Type: cell-based, Serratia marcescens
Details: S. marcescens GN6944, GM-resistant

Can you look up the measured minimal inhibitory concentration (MIC) of CN[C@@H]1[C@@H](O[C@H]2O[C@H](CO)[C@@H](NC(=N)N)[C@H](O)[C@H]2O)O[C@H]2C[C@@H](N)[C@@H](O[C@H]3[C@@H](O)[C@@H](O)[C@H](N)C[C@@H]3N)O[C@@H]2[C@@H]1O [Compound S1-j, 4″-deamino-5-epi-4″-guanidinoapramycin] for me?
4 µg/mL

Cool, now CNC1C(OC2CC(O)C(N)C(CO)O2)OC2CC(N)C(OC3C(N)CC(N)C(O)C3O)OC2C1O (stereo not shown) [Compound Y3, 2″-deoxy-5,3″-diepiapramycin]
4 µg/mL

How about this compound: `CN[C@@H]1[C@@H](O[C@@H]2C[C@H](O)[C@H](N)[C@@H](CO)O2)O[C@H]2C[C@@H](N)[C@@H](O[C@H]3[C@@H](F)[C@@H](O)[C@H](N)C[C@@H]3N)O[C@@H]2[C@@H]1O`
2 µg/mL

And the next one, CNC1C(O[C@H]2OC(CO)[C@@H](NCCCN)[C@H](O)C2O)O[C@H]2CC(N)[C@@H](O[C@@H]3C(N)C[C@@H](N)C(O)[C@H]3O)OC2C1O (stereo partly shown) [Compound S1-h, 4″-N-(3-aminopropyl)-5-epiapramycin] ?
8 µg/mL

Can you check CNC1C(OC2OC(CO)C(N)C(O)C2O)OC2CC(N)C(OC3C(N)CC(N)CC3N)OC2C1O (stereo not shown) next?
16 µg/mL

Thanks! And CNC1C(OC2OC(CO)C(NCC3(N)CCCC3)C(O)C2O)OC2CC(N)C(OC3C(N)CC(N)C(O)C3O)OC2C1O (stereo not shown) ?
8 µg/mL

Query CNC1C(O[C@H]2OC(CO)[C@@H](NC(=O)CN)[C@H](O)C2O)O[C@H]2CC(N)[C@@H](O[C@@H]3C(N)C[C@@H](N)C(O)[C@H]3O)OC2C1O (single isomer, unassigned) next
8 µg/mL

* * *

Test system: K. pneumoniae ATCC BAA-1705
Experiment: MIC, agar plate dilution method, K. pneumoniae ATCC BAA-1705
Assay type: cell-based, Klebsiella pneumoniae
Conditions: K. pneumoniae ATCC BAA-1705, KPC-producing strain
property measured: minimal inhibitory concentration (MIC) (µg/mL)
Express the result in µg/mL but write the number alone.

Under K. pneumoniae ATCC BAA-1705: minimal inhibitory concentration (MIC) value of CN[C@@H]1[C@@H](O[C@H]2O[C@H](CO)[C@@H](N)[C@@H](O)[C@H]2O)O[C@H]2C[C@@H](N)[C@@H](O[C@H]3[C@@H](O)[C@@H](O)[C@H](N)C[C@@H]3N)O[C@@H]2[C@@H]1O [Compound P4, 5,3″-diepiapramycin] ?
2

And the next one, CNC1C(OC2OC(CO)C(N)C(O)C2O)OC2CC(N)C(OC3C(N)CC(N)C(O)C3F)OC2C1O (stereo not drawn) [Compound B7, 5-deoxy-5-epi-5-fluoroapramycin] ?
2

Here is the next compound: CNC1C(OC2OC(CO)C(NC(=N)N)CC2O)OC2CC(N)C(OC3C(N)CC(N)C(O)C3O)OC2C1O (centres unmarked)
1

Do the same for CNC1C(CO)OC(OC2OC3CC(N)C(OC4C(N)CC(N)C(O)C4O)OC3C(O)C2NC)C(O)C1O (centres unmarked) please
2

Now try CNC1C(OC2OC(CO)C(NCCNC(=N)N)C(O)C2O)OC2CC(N)C(OC3C(N)CC(N)C(O)C3O)OC2C1O (centres unmarked) .
1

Another compound to check: CN[C@@H]1[C@@H](O[C@H]2O[C@H](CO)[C@@H](N)C[C@H]2O)O[C@H]2C[C@@H](N)[C@@H](O[C@@H]3[C@@H](N)C[C@@H](N)C[C@@H]3O)O[C@@H]2[C@@H]1O [Compound N5, 6,3″-dideoxy-5-epiapramycin]
2

Lookup `CN[C@@H]1[C@@H](O[C@H]2O[C@H](CO)[C@@H](N)[C@H](O)[C@H]2O)O[C@H]2C[C@@H](N)[C@@H](O[C@H]3[C@H](N)[C@@H](O)[C@H](N)C[C@@H]3N)O[C@@H]2[C@@H]1O`
4

For CNC1C(OC2CC(O)C(N)C(CO)O2)OC2CC(N)C(OC3C(N)CC(N)C(O)C3O)OC2C1O (centres unmarked) [Compound Y3, 2″-deoxy-5,3″-diepiapramycin] then?
2

And for CNC1C(OC2OC(CO)C(NC(=O)C(N)CO)C(O)C2O)OC2CC(N)C(OC3C(N)CC(N)C(O)C3O)OC2C1O [Compound V1-l, 5-epi-4″-N-(L-seryl)apramycin] ?
1

Moving on to the next compound: CNC1C(OC2OC(CO)C(N)CC2O)OC2CC(N)C(OC3C(N)CC(N)C(O)C3F)OC2C1O (stereo not drawn) [Compound M10, 5,3″-dideoxy-5-epi-5-fluoroapramycin]
1

And the next one, CN[C@@H]1[C@@H](O[C@H]2O[C@H](CO)[C@@H](N)[C@@H](O)[C@H]2O)O[C@H]2C[C@@H](N)[C@@H](O[C@H]3[C@H](O)[C@@H](O)[C@H](N)C[C@@H]3N)O[C@@H]2[C@@H]1O [Compound H3, 3″-epiapramycin] ?
2
